Data origin, for the record: paper PMC7004355

Substrate: NCCC[C@H](N)C(=O)O
Test: purified protein
Details: 50 mM Tris pH 8.5, 20 °C, 20 mM NaCl, carbamoyl phosphate 5 mM
Observation type: Km (mM)

{"columns": ["Protein", "Observation type", "Reported result"],
 "data": [
  ["Escherichia coli ornithine transcarbamoylase (OTC) variant Y160S, His-tagged (enzyme, E. coli, Anabolic ornithine transcarbamoylase of E. coli, argI gene, 333-residue subunit; Made by site-directed mutagenesis of the ASKA pCA24N plasmid; 6x-His tag not cleaved; source: E. coli BL21 (DE3) Tuner, purified (HisTrap FF, Superdex 200 SEC)) SGFYHKHFLKLLDFTPAELNSLLQLAAKLKADKKSGKEEAKLTGKNIALIFEKDSTRTRCSFEVAAYDQGARVTYLGPSGSQIGHKESIKDTARVLGRMYDGIQYRGYGQEIVETLAEYASVPVWNGLTNEFHPTQLLADLLTMQEHLPGKAFNEMTLVSAGDARNNMGNSMLEAAALTGLDLRLVAPQACWPEAALVTECRALAQQNGGNITLTEDVAKGVEGADFIYTDVWVSMGEAKEKWAERIALLREYQVNSKMMQLTGNPEVKFLHCLPAFHDDQTTLGKKMAEEFGLHGGMEVTDEVFESAASIVFDQAENRMHTIKAVMVATLSK", "Km", 7.3]
]}
